- system-name: T1, TNFR1 (Homo sapiens, UniProt P19438)
- T1 chain: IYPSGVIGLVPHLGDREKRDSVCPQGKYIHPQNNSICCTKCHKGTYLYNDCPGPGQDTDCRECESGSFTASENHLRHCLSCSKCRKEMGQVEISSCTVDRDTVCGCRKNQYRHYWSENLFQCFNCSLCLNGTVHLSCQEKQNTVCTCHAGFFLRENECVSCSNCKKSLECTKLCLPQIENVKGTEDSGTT
- measurement-protocol: yeast display SC50
Returns one of 1 (yes) or 0 (no); 1 (yes) when apparent Kd (screen) is >= 1 nM.

Q: Answer whether apparent Kd (screen) of S80D (designed binder) SMEEEVEKAAKEYEKKKKEAIEKHLEKLKAKDKEAAERFLKELEEAAKEYAKDEAKTMSEEEAKRRAKKYKEKVLLSELDEEEQKEIKEAEEKLVRTILKYVEEAAK is greater than or equal to 1 nM.
Ans: 1 (yes)

Q: Would you say A63H (designed binder) SMEEEVEKAAKEYEKKKKEAIEKHLEKLKAKDKEAAERFLKELEEAAKEYAKDEAKTMSEEEHKRRAKKYKEKVLLSELSEEEQKEIKEAEEKLVRTILKYVEEAAK shows apparent Kd (screen) at minimum 1 nM?
Ans: 1 (yes)

Q: Check this binder for apparent Kd (screen) at or above 1 nM: S59L (designed binder) SMEEEVEKAAKEYEKKKKEAIEKHLEKLKAKDKEAAERFLKELEEAAKEYAKDEAKTMLEEEAKRRAKKYKEKVLLSELSEEEQKEIKEAEEKLVRTILKYVEEAAK
Ans: 1 (yes)

Q: Please check the record A105Q (designed binder) SMEEEVEKAAKEYEKKKKEAIEKHLEKLKAKDKEAAERFLKELEEAAKEYAKDEAKTMSEEEAKRRAKKYKEKVLLSELSEEEQKEIKEAEEKLVRTILKYVEEQAK and state if its apparent Kd (screen) is at or above 1 nM.
Ans: 0 (no)

Q: State whether the measured apparent Kd (screen) reaches 1 nM, counting equality as reaching it, for E60H (designed binder) SMEEEVEKAAKEYEKKKKEAIEKHLEKLKAKDKEAAERFLKELEEAAKEYAKDEAKTMSHEEAKRRAKKYKEKVLLSELSEEEQKEIKEAEEKLVRTILKYVEEAAK
Ans: 0 (no)

Q: Would you say K11H (designed binder) SMEEEVEKAAHEYEKKKKEAIEKHLEKLKAKDKEAAERFLKELEEAAKEYAKDEAKTMSEEEAKRRAKKYKEKVLLSELSEEEQKEIKEAEEKLVRTILKYVEEAAK shows apparent Kd (screen) at minimum 1 nM?
Ans: 0 (no)

Q: Could you tell me if the measured apparent Kd (screen) of Y101A (designed binder) SMEEEVEKAAKEYEKKKKEAIEKHLEKLKAKDKEAAERFLKELEEAAKEYAKDEAKTMSEEEAKRRAKKYKEKVLLSELSEEEQKEIKEAEEKLVRTILKAVEEAAK reaches 1 nM or more?
Ans: 0 (no)

Q: Determine whether this binder has apparent Kd (screen) no lower than 1 nM: A51F (designed binder) SMEEEVEKAAKEYEKKKKEAIEKHLEKLKAKDKEAAERFLKELEEAAKEYFKDEAKTMSEEEAKRRAKKYKEKVLLSELSEEEQKEIKEAEEKLVRTILKYVEEAAK
Ans: 0 (no)

Origin of values: paper PMC12416549
